experiment: amyloid nucleation score (Sup35N fusion, yeast selection) (log enrichment); library NNK2; higher = more nucleation; inactive = no reads after selection;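 note: zero at mode of non-aggregating sequences after 7 days selection at 30°C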
amyloid nucleation score vs 0.06: at or above is TRUE, below is FALSE.

The following substances have reported results that may help.
KIHQRRVTSTANRCTILAAN ... FALSE
QLMDGSRSLFMALRRRFLLV ... TRUE
HFLVHFVFDLIRCVLAFVYC ... TRUE

API: the following record is the query input.
Prompt line: Hi team, for `LNRVGPLVILPIRHLQSTSL` , is the recorded amyloid nucleation score at or above 0.06?
Response line: TRUE

###

test: amyloid nucleation score (Sup35N fusion, yeast selection) (log enrichment); library NNK2; higher = more nucleation; inactive = no reads after selection
amyloid nucleation score vs -0.2: at or above is Met, below is Not met.

The following sequences have reported results that may help.
RGVGYYRGSICTWFNWAAMW ... Met
VRFSQKYCSVDIAMQRLFMV ... Not met
HGYSVFYAVYAEGEMNIINA ... Met
DRIAETSRYKRSENSLSLV ... Met

Prompt line: Hi team, for `SIFSKYCF` , is the recorded amyloid nucleation score at or above -0.2?
Response line: Not met

Prompt line: Hi team, for `WHGKVGRTAWCLGMLFYDVR` , is the recorded amyloid nucleation score at or above -0.2?
Response line: Met

###

experiment: amyloid nucleation score (Sup35N fusion, yeast selection) (log enrichment); library NNK1; higher = more nucleation; inactive = no reads after selection
REPORTED ENDPOINT: amyloid nucleation score
Keep it simple and answer with nothing but the number.

For orientation, consider the following solved cases.
PRNQNMT ... 0.992
CGMMVSEGSVSCRSLPIYLA ... 0.275
YVWKMIHVYGMTLSDFTFKV ... 5.19
GKSTCFSMKQECLAEREEEG ... 0.257

Entry `GLVNFTVVLTFV` , amyloid nucleation score reported as 2.82

###

test: amyloid nucleation score (Sup35N fusion, yeast selection) (log enrichment); library NNK2; higher = more nucleation; inactive = no reads after selection
amyloid nucleation score vs 0.3: at or above is Condition met, below is Condition not met.

The following substances have reported results that may help.
MFARDNRFPYCDDTRSDSSF ... Condition not met
ILRSRGERISASY ... Condition met
NYMRYTYHSMCVLWFTVGEC ... Condition met
VKLTLRVLLMSRTETHTVCR ... Condition met
FLCTNGGPLALSNGWVTSGE ... Condition not met

Prompt line: Hi team, for `PSIKCTLFYSVTYLFMWGRK` , is the recorded amyloid nucleation score at or above 0.3?
Response line: Condition not met

Prompt line: Hi team, for `TVVVWA` , is the recorded amyloid nucleation score at or above 0.3?
Response line: Condition not met

Prompt line: Hi team, for `RVDYSMREFCLSSRAREDTV` , is the recorded amyloid nucleation score at or above 0.3?
Response line: Condition not met

###

The following substances are shown together with reported amyloid nucleation score values.
assay: amyloid nucleation score (Sup35N fusion, yeast selection) (log enrichment); library NNK1; higher = more nucleation; inactive = no reads after selection
Keep it simple and answer with nothing but the number.

For orientation, consider the following solved cases.
MVKLSLVIMMVLNGGMANGS ... 0.69
NADCLIDDFASFDHMVPG ... 0.004
DVVPSSGFVFMIRTDTLSHN ... -0.265
FNKVSAMDEAREYGVEVVAV ... 5.46
IVQIIPGVCCA ... 0.311

Entry `PAPPAQHIYVQRVYSFCQRG` , amyloid nucleation score reported as -0.161

Entry `GRTYDDYGHVIYRSWLPSLH` , amyloid nucleation score reported as -0.274

Entry `IWLVQIHVSSSMPTSYPHIS` , amyloid nucleation score reported as 0.355

Entry `DDSGRL` , amyloid nucleation score reported as 0.494

Entry `FSHLFHQY` , amyloid nucleation score reported as 2.13

Entry `YFKFRGDDCENYWSVSGNEA` , amyloid nucleation score reported as 0.111
